# Test system: MS2 coat protein
# test_method_notes: apparent KD of MS2 coat protein; designed switch direction (-1 OFF switch, 1 ON switch): 1; higher = weaker reporter binding
# condition_summary: input ligand: microRNA oligo, concentration not stated
This listing pairs sequences with measured apparent KD of MS2 coat protein.
property_label: apparent KD of MS2 coat protein (nM)

{"columns": ["sequence", "endpoint_value"],
 "data": [
  ["GAGCCAGUCCGAGGAUAUUCAUAAUUAAAUACAUGAGGAUCACCCAUGUAGGCAAGAGAGCCUUGGGAGAAGGCGGACUGGCUC [Xeonanisa>>2] (Eterna round: R96, puzzle: Same State NG 2)", 25],
  ["CAGCCACAAAAUACGGCUGAAACAUGAGGAUCACCCAUGUCACAGGAUAUCCAACGGUAUACCGCGGAGAAGGGUGCGAAGAAC [Ceusso] (Eterna round: R96, puzzle: Same State NG 3)", 73.8],
  ["UUGAAGAAUUAAGGAUAUUGAGUACAUAUGUUUAACAUGAGGAUCACCCAUGUGGGUUGCGGUAUCGAGAAGGUAAAUUAAUAG [Mat - same State NG 2 - JL mod - D66] (Eterna round: R96, puzzle: Same State NG 2)", 126],
  ["AAUUAAGAUCAAGGAUAUCACGUCGAUUAGACGUGAGAAGGUGAUCAUAACAUGAGGAUCACCCAUGUAUUACAUGAAUUAAUU [SSNG1/2-B2] (Eterna round: R96, puzzle: Same State NG 1)", 330],
  ["ACAUGAGACAGAGGAUAUGUUGUACCUACAUGUGACAUGAGGAUCACCCAUGUGGUAAGUAUGAUACAGAAGGCUGAGAUAUGU [Equivalance 64 - Jieux - Same State NG 2] (Eterna round: R96, puzzle: Same State NG 2)", 18.3],
  ["AGUAAGAGUCAAGGAUAUGCUACCGUUUCGGUAGCAGAAGGUGAUCACAUGAGGAUCACCCAUGUAUAAAUGCGUGAGCGUGCU [JL SSNG1 3.63] (Eterna round: R96, puzzle: Same State NG 1)", 28.2],
  ["UUGAGAUGUACAGGAUAUGGUGAGGAUCACCCACUAGAAGGGUGCACAUGUGAAUCGGACAUGAGGAUCACCCAUGUAGGGCGU (Eterna round: R96, puzzle: Same State NG 1)", 207],
  ["GGUCGGACUCACAUGAGGAUCACCCAUGUUGCGGAAACGCGACAGGAUAUCUGUCCGAAAAGGUCAGAGAAGGGUCAACCGACC [Fiskers NG3ss - 58] (Eterna round: R96, puzzle: Same State NG 3)", 431],
  ["AUUAUUAAUGCAGGAUAUGAUUAACAUGAGGAUCACCCAUGUGGUGUUGUGAGUAAGGAGAGUGAUCAGAAGGGCAUUUUUUUA [JMF's solution 18] (Eterna round: R96, puzzle: Same State NG 2)", 440],
  ["GUUCCAAGGUGAGGAUAUGCAGAGGAUCACCCUGUAGAAGGCAUCAGGUGAGGAUAUGCAGAGGAUCACCCUGUAGAAGGCAUC [pwkr ssNG DX.10] (Eterna round: R96, puzzle: Same State NG 1)", 180],
  ["ACGCAAAAUGGAGGAUAUGGAGCCUUAUUGGCUCCAGAAGGUCAAAACAUGAGGAUCACCCAUGUGCGGUGGUCUAAUGACCAC [Eli NG1ss - 46] (Eterna round: R96, puzzle: Same State NG 1)", 109],
  ["GUGGUCAGACAUGAGGAUCACCCAUGUGGAAUAAAUAAGGGUUAGGAUAUCGAAUAUAGGAUAUACGAGAAGGGAUGGUUGGUG (Eterna round: R96, puzzle: Same State NG 3)", 95.3],
  ["AGAUCAUGACGAGGAUAUGGUACAUGAGGAUCACCCAUGUAUGUACCACGACGGAAACGUCGAAUCCAGAAGGCGUCGUGGUCA [Mat - Same State NG 2 - JL mod - D22] (Eterna round: R96, puzzle: Same State NG 2)", 115],
  ["UUGAGGAAUUAAGGAUAUUGAGUACAUAUGUUUAACAUGAGGAUCACCCAUGUGGGUUGCGGUAUCGAGAAGGUAAAUUACAAG [Mat - same State NG 2 - JL mod - D74] (Eterna round: R96, puzzle: Same State NG 2)", 97.8],
  ["ACAUUUAGCUCGUGCACAUGAGGAUCACCCAUGUUCAGUUCACAGGAUAUCUAGUCAAACGGAUCGGAGAAGGGUGGCAGGAGC [Quceon] (Eterna round: R96, puzzle: Same State NG 3)", 121],
  ["GGUCGGAACCACAUGAGGAUCACCCAUGUUCCGGAAACGGCGCAGGAUAUCUGUCCGAAAAGGUCAGAGAAGGGUGAACCGACC [Fiskers NG3ss - 78] (Eterna round: R96, puzzle: Same State NG 3)", 314],
  ["GUUGAGAAAUAAGGAUAUGCAUGGAAGACACAUGAGGAUCACCCAUGUGGGAGGGAAACCAGGAGGUAGAAGGUAUUGGGAAAC [AK SSNG2-V2-23.1] (Eterna round: R96, puzzle: Same State NG 2)", 28.7],
  ["GGAGCCAAGGCAGGAUAUUCAUAUUAAAUACAUGAGGAUCACCCAUGUUAGGCCAGAAGGCCUUGGGAGAAGGGCCAUGGCUCG [Xeonanis - 13 mod20] (Eterna round: R96, puzzle: Same State NG 2)", 34.1]
]}

====

# Tested on: K4 kissing-loop RNA reporter;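 note: bound reporter read as fluorescence of individual clusters on recovered sequencing chips by microscopy, with normalized cluster intensities fitted with a binding model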
# test_method_notes: apparent KD of K4 kissing-loop reporter; higher = weaker reporter binding
# condition_summary: Eterna round: R107; input ligand: FMN 200 uM

{"columns": ["sequence", "system", "apparent KD of K4 kissing-loop reporter / nM"],
 "data": [
  ["CGACGGAGUGAUGUUUCGUGGUAUGCUGAUACCAGAUGAAACAGCGUCCCUUGGCAGCAGCAUACGCCAAGGAUAAUAUCCUAGU [Theo B SS t6]", "K4 kissing-loop RNA reporter", 1200],
  ["GUUACGCAUGGAAGGAGCGCGAAAAUUUAUAGUGAGUGAUGUUCACAAAUAAGAAUAAUAACGCAGGUAGGUCGCCAUGUGUAAC [Ex Arginine B K4 5]", "K4 kissing-loop RNA reporter", 87.1],
  ["AAACAUUGGUCUGAUACCAGUUAGACCGAUAGGUCAAAACUGGAGUGAUGUUCCUAAAAUAACCCUUGGCAGCAGACCGAUGAAA [MAT - Same State Theophlline B - Mod of Eli - D4]", "K4 kissing-loop RNA reporter", 3640],
  ["AGCUCAGCGUGACUCGAUAAGAGUCACAAACGAGGACCGGUACGGCCGCCACUCGAAAUAAAGGGAGUGAUGUUCUCGCUGAGCA [#SwitchBubble 4 #StaticStem #K4Late]", "K4 kissing-loop RNA reporter", 641],
  ["UCGGACCCUGGAGGAUAUGAGUCGAGUGAUGUUCGGCGGUCCAUGCCGAUGCGGCGUUAUGCCCUUUUAGAAGGCCAGGGUCCGA [#2 Exclusion - FMN B Attempt #10 (HarryS)]", "K4 kissing-loop RNA reporter", 498],
  ["GUGCAGUGAUGUUGCACGAGGAAAGACGAUACCAGCCGUAAAUAAGGCCCUUGGCAGCGUAGGCUAGCAUAAAGCAUGCUAGUCC [Edeson]", "K4 kissing-loop RNA reporter", 131],
  ["GCAGUGAUGUUGCGGAUGUACAGUGGCGUGCGAGGACCGGUACGGCCGCCACUCGUACAGACCAAGCUAAUACAUCGAUAGGUGA [whbob_SS_Tryp_A_m3]", "K4 kissing-loop RNA reporter", 344],
  ["GCCGUAGAUUGAAGGAGCGGUGAAUGCAGGUGAGUCCUUUAGAUGUUUAGUGAUGUUAAACACCAGGUAGGUCGCAAUCUACGGC", "K4 kissing-loop RNA reporter", 235],
  ["AAUGUGCAGGGAAGGAGCGUAGUCCAGUGAUGUUGGAGUUAAAUACCAGUGAUGUUGGUUAUACAGGUAGGUCGCCCUAAAGCGC [Exclusion Arginine B Gf 5]", "K4 kissing-loop RNA reporter", 73.5],
  ["UAUUAAUUGACGGCCGCCACUAUUGUGAUUUAUUUGUUUGAGUGAUGUUUUGAUGUUUGAUUUUGUAGGACCGGGUUAUGUGUUA [zwzcmullin]", "K4 kissing-loop RNA reporter", 918],
  ["AUUUUGUUGUCAGGAUAUUAGUAUGGUUUUGGUUUGUUAGUGAUGUUGAUGGUUUGUUUAUGUAUUUAAGAAGGGAUUUAGCGGU [swwsgumullin]", "K4 kissing-loop RNA reporter", 693],
  ["UGAUACCAGACGGCCGCCACUAGACCAGUCAAAGACUGGAUGUGAUGUUUGAGGAGUGAUGUUCCUAGGACCGGGUCUGGUAUCU [TrypBX 4 #Palindromic #SwitchBubble #StaticStem]", "K4 kissing-loop RNA reporter", 91.3]
]}

The reported numbers originate from the supplement of paper PMC9170038.
